Below are compounds with their EC50 as measured on Peroxisome proliferator-activated receptor delta (Homo sapiens).
Sequence (Q03181 whole entry): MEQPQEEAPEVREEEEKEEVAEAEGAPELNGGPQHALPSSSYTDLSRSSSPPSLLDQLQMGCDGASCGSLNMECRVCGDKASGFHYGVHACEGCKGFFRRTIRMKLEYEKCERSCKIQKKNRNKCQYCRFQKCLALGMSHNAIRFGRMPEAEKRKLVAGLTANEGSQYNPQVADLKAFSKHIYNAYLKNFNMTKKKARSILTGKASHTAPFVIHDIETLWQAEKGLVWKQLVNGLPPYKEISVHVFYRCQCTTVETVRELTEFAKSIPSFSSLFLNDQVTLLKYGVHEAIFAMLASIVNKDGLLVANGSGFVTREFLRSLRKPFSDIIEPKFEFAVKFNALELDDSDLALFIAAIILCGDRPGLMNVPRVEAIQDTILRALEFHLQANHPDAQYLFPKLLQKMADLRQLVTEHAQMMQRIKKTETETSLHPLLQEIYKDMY
observedProperty: EC50 (nM)

Answered cases to consult:
| compound | readoutUnits | EC50 |
| --- | --- | --- |
| CCCN(c1cccc(-c2ccc(Cl)cc2)c1C)S(=O)(=O)c1ccc(OC(C)C(=O)O)c(C)c1C (stereo not drawn) | nM | 79.4 |
| CCCCN(c1cccc(-c2cccc(Cl)c2)c1C)S(=O)(=O)c1ccc(OC(C)C(=O)O)c(C)c1C (stereo not drawn) | nM | 501 |
| CCCCN(c1cccc(-c2ccc(Cl)cc2)c1C)S(=O)(=O)c1ccc(OC(C)C(=O)O)c(OC)c1Cl (stereo not drawn) | nM | 316 |
| CCCCN(c1cccc(-c2ccc(Cl)cc2)c1OC)S(=O)(=O)c1ccc(OC(C)C(=O)O)c(C)c1C (stereo not drawn) | nM | 20 |
| Cc1c(-c2ccc(Cl)cc2)cccc1N(CC1CC1)S(=O)(=O)c1ccc(OC(C)C(=O)O)c(C)c1C (stereo not drawn) | nM | 794 |

I = CCCCN(c1cc(-c2ccc(Cl)cc2)ccc1C)S(=O)(=O)c1ccc(OC(C)C(=O)O)c(C)c1C (stereo not drawn)
II = CCCCN(c1cccc(-c2ccc(Cl)c(Cl)c2)c1C)S(=O)(=O)c1ccc(OC(C)C(=O)O)c(C)c1C (stereo not drawn)
In: Between I and II , which one shows the larger EC50 value? Bench note: the answer is the label of the chosen record.
Out: I

Recorded values, source ChEMBL document CHEMBL1759972.
